TEST_NAME: protein stability index of a GFP-peptide fusion (yeast GPS) (PSI 1-4); higher = more stable; sorted into four equal gates, so the index is relative within each strain
APPLIED_CONDITIONS: ubr1∆
Give TRUE when the value for protein stability index is at least 3. Give FALSE when it is less.

BIOPOLYMER_SEQUENCE	ASSIGNED_LABEL
NQLTESASHFEQYTKKI [YJL041W/NSP1]	FALSE
DEPDEQGNPKKRPGKLS [CYT1]	TRUE
GQCRTELEGSFNKSAEL [YCS4]	FALSE
IKAFMDSTIGNSKVDMK [IRR1]	FALSE
DEEYPVKVKVSYQKLLK [PRP8]	FALSE
RSRYRREIDALKKQLHV [YIL149C/MLP2]	TRUE

Assess whether reported protein stability index for SLTEATKTNVDNNSKAE [YLR335W/NUP2] sits at 3 or higher.
TRUE

Assess whether reported protein stability index for AAGYGKILGKGRIPNVP [RPL28] sits at 3 or higher.
TRUE

Assess whether reported protein stability index for GKEFGDVSVKMGNTKVH [RRP45] sits at 3 or higher.
FALSE

Assess whether reported protein stability index for HTLCNRCGRRSFHVQKK [RPL37A] sits at 3 or higher.
FALSE

Assess whether reported protein stability index for KGVYLILSEILCQINKC [YML103C/NUP188] sits at 3 or higher.
FALSE

Assess whether reported protein stability index for DTKNLYVIKALQSLTSK [RPS10A] sits at 3 or higher.
FALSE

Assess whether reported protein stability index for RLMMNSKVGSADTGRDD [RPN11] sits at 3 or higher.
TRUE

====

# protein stability index listing for each entry below
TEST_NAME: protein stability index of a GFP-peptide fusion (yeast GPS) (PSI 1-4); higher = more stable; sorted into four equal gates, so the index is relative within each strain
APPLIED_CONDITIONS: san1∆
The answer should be a number; do not append a unit.

BIOPOLYMER_SEQUENCE	protein stability index
RAQLENEIEGKNEETPQ [RPC25]	2.47
IKTRTVHELSKRVHTLL [ISW2]	2.18
LGYKAKQGFVIYRVRVR [RPL15A]	2.06
FVFTNEPLTEIKNVIVS [RPP0]	3.12

Field protein stability index (entry DPDIPMTIDLEPIEESS [IRR1] ) reads 3.01

Field protein stability index (entry NLFKINSIDVPIRINST [YMR129W/POM152] ) reads 2.02

Field protein stability index (entry LRQLASYYSREQDALFI [RPN1] ) reads 1.63

Field protein stability index (entry SLKQYAGNLITTPEINN [SRP68] ) reads 2.92

Field protein stability index (entry KHGAKKVAKRTKIKPFI [RPL27A] ) reads 2.95

Field protein stability index (entry KGEVYTIPLGGSVHKLP [PRE3] ) reads 2.84

Field protein stability index (entry SFLGYLRYVKQIEGPFL [ISW2] ) reads 2.45

Field protein stability index (entry YVEAQHKLVFVVRIKGI [RPL7A] ) reads 1.25

====

TEST_NAME: protein stability index of a GFP-peptide fusion (yeast GPS) (PSI 1-4); higher = more stable; sorted into four equal gates, so the index is relative within each strain
APPLIED_CONDITIONS: san1∆
REPORTED_METRIC: protein stability index
The answer should be a number; do not append a unit.

Field protein stability index (entry KARNGLDYVRTPAAATS [SNF2] ) reads 2.12

Field protein stability index (entry DNTVRTSANGIVQFTYG [RPO31] ) reads 2.25

Field protein stability index (entry KKEANLFPEQQNKEIKA [RPL6A] ) reads 3.21

Field protein stability index (entry KERKLRENIAMLKRFFP [SMC1] ) reads 2.65

Field protein stability index (entry SNSAGTSLFGSSSAQQT [YJL041W/NSP1] ) reads 3.12

Field protein stability index (entry LAIKDSKKRFAAIWTLC [RPO21] ) reads 1.8

Field protein stability index (entry LKPDLNKITNQGVTCLH [NAS6] ) reads 3.13

====

# protein stability index listing for each entry below
TEST_NAME: protein stability index of a GFP-peptide fusion (yeast GPS) (PSI 1-4); higher = more stable; sorted into four equal gates, so the index is relative within each strain
APPLIED_CONDITIONS: san1∆
The answer should be a number; do not append a unit.

BIOPOLYMER_SEQUENCE	REPORTED_METRIC	TEST_VALUE
YHLTKAVKLGDLKKFTS [RPN3]	protein stability index	1.54

# context switch: different sequence, same protein stability index
Field protein stability index (entry GDDESKIPAVEYFGGES [FAS1] ) reads 2.97

====

TEST_NAME: protein stability index of a GFP-peptide fusion (yeast GPS) (PSI 1-4); higher = more stable; sorted into four equal gates, so the index is relative within each strain
APPLIED_CONDITIONS: doa10∆
REPORTED_METRIC: protein stability index
The answer should be a number; do not append a unit.

BIOPOLYMER_SEQUENCE	protein stability index
VDPRIINSENDYSRKQL [NUT1]	3.06
LFNNHLNGILADEMGLG [SNF2]	2.83
LLKKATKPEVASDMSDE [CDC53]	2.67
LIKAKNFLVFQGDVEQI [SMC1]	2.63
QQLDSFNQFVDYTLQDI [RPB2]	2.48
VDIGGKQHAVLMLGSVN [RRP4]	2.06
MAPNTSRKQKIAKTFTV [RPL22A]	2.15

Field protein stability index (entry RQFSNEEVNRCYLRWQH [SNF2] ) reads 2.83

====

TEST_NAME: protein stability index of a GFP-peptide fusion (yeast GPS) (PSI 1-4); higher = more stable; sorted into four equal gates, so the index is relative within each strain
APPLIED_CONDITIONS: ubr1∆
Give YES when the value for protein stability index is at least 3. Give NO when it is less.

Worked examples, 2 sequences total:
BIOPOLYMER_SEQUENCE	ASSIGNED_LABEL
TMGGNAELELVDSLDPF [SMC4]	YES
QCLRFLKETVIPSLANN [POP6]	NO

Assess whether reported protein stability index for FGFSSSGTAATGAASNQ [YOR098C/NUP1] sits at 3 or higher.
YES

Assess whether reported protein stability index for PRMIELMEFLCVVSTDS [ECM29] sits at 3 or higher.
NO

Assess whether reported protein stability index for ESSNEAKKTIQNPLNKS [SIR4] sits at 3 or higher.
YES

====

TEST_NAME: protein stability index of a GFP-peptide fusion (yeast GPS) (PSI 1-4); higher = more stable; sorted into four equal gates, so the index is relative within each strain
APPLIED_CONDITIONS: pdr5∆
REPORTED_METRIC: protein stability index
The answer should be a number; do not append a unit.

Study these solved cases before continuing.
BIOPOLYMER_SEQUENCE	protein stability index
IEELDNPMVPSSVNEDT [PRP8]	3.22
TTLDAEKVFTQGLNILE [FAS1]	3.21
YDPKDGLYKMMEERDGA [AAR2]	2.94
ASAPLCSPKLPVEKVQR [DLS1]	3.07
TRMQRGHRADVGGQFSK [REC8]	3.32
RAQLENEIEGKNEETPQ [RPC25]	3.23
FKGTDFVHSVKKFLRVR [SRB4]	2.64
TELVDGRENFVYANNPE [SIR3]	3.33
LLGKESFKKIIKFLLTF [YCS4]	1.57
AFNRFMAESLVDLEEVM [SSN8]	2.4

Field protein stability index (entry GTGLFGQQTAQPQQSTI [YGR119C/NUP57] ) reads 3.13

Field protein stability index (entry APSANQGDEALSVDDIR [RTT102] ) reads 3.33

Field protein stability index (entry RLQAKRLKDVEWVKLHR [RMP1] ) reads 3.09

Field protein stability index (entry IGGLLSKVREEVGDVCI [RPO31] ) reads 1.86

Field protein stability index (entry FLKLANGGKFSKSNLIH [RGR1] ) reads 2.55

====

TEST_NAME: protein stability index of a GFP-peptide fusion (yeast GPS) (PSI 1-4); higher = more stable; sorted into four equal gates, so the index is relative within each strain
APPLIED_CONDITIONS: pdr5∆
# protein stability index listing for each entry below
The answer should be a number; do not append a unit.

Study these solved cases before continuing.
BIOPOLYMER_SEQUENCE	REPORTED_METRIC	TEST_VALUE
ISTPIINAVLVNDNDER [RPO31]	protein stability index	2.22
DTICQSIQEQIQEFQGN [SNF5]	protein stability index	3.44
KREASRGFFDILSLATE [MCD1]	protein stability index	3.21

Field protein stability index (entry GDRGALARASGNYVIII [RPL2A] ) reads 2.81

Field protein stability index (entry AEKLVPLPICHANSVVA [YML031W/NDC1] ) reads 1.34

Field protein stability index (entry SKSPSEWQDIIHQREQE [CSE2] ) reads 3.31

Field protein stability index (entry ADKVYTKENLEVSGENV [QCR2] ) reads 3.59
